All figures here come from paper PMC10733307.

# Subject of test: AfuSPL (Aspergillus fumigatus)
# Construct: cytosolic catalytic domain, Δ1-81, C-terminal His tag, pET28, E. coli BL21 with GroEL/GroES (pGro7), about 50 kDa subunit, dimer
# Sequence (Q4WPU3 82-572): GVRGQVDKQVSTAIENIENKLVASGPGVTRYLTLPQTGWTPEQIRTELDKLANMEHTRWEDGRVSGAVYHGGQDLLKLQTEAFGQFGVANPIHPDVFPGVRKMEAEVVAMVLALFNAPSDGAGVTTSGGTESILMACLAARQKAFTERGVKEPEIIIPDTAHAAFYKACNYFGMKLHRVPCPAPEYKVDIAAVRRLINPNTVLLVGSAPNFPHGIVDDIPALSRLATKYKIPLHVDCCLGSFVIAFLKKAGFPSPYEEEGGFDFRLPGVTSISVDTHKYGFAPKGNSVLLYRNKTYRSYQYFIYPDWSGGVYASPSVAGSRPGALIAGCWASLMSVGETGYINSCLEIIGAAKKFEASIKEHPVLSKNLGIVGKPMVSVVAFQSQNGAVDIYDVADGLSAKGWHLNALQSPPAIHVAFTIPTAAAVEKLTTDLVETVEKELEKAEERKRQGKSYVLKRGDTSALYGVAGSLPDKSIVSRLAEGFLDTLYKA
# Experimental protocol: fluorimetric lyase assay, global fit to competitive inhibition model
Property: Ki (µM)
Give a bare numeral; the unit µM is implied.

Ki in this record for CCCOC(=O)c1c(NC(=O)CCCC(=O)Nc2sc3c(c2C(=O)OCCC)CCCCC3)sc2c1CCCCC2 : 270
